pKi: −log10 of the molar value.
Heads up, these molecules all have pKi values measured for UniProt Q99720.

See these solved cases before continuing.
>>> reading("CCc1ncc(-c2ccccn2)c(C2CCN(CC(=O)N3CCOCC3)CC2)n1 [Example 13]")
"< 6.00"
>>> reading("CCc1ncc(-c2nccn2C)c(C2CCN(CC(=O)N3CCOCC3)CC2)n1 [Example 16]")
"< 6.00"
>>> reading("CCc1ncc(-c2ccncc2)c(C2CCN(CC(=O)N3CCOCC3)CC2)n1 [Example 15]")
"6.00 to 6.30"

Shift focus to the following entry.
// query Name the reported pKi value associated with the molecule CCc1ncc(-c2cc(C)no2)c(C2CCN(CC(=O)N3CCC4(CCOC4)CC3)CC2)n1 [Example 4]
// result < 6.00

----------
# maps each entry to its pKi
assay target: human σ2/TMEM97 receptor (Homo sapiens, UniProt Q5BJF2)
Sequence (Q5BJF2 whole entry): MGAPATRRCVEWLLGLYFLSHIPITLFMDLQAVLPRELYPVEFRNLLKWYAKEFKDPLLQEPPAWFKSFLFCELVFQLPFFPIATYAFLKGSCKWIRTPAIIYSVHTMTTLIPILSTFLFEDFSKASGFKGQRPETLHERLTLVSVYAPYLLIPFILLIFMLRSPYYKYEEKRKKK
assay method text: Binding assay to human σ2/TMEM97 receptor ([3H]-DTG)
setup conditions: transfected HEK-293 membranes, 10 nM [3H]-DTG, 25° C. 120 minutes; read-out: Binding σ-2
pKi: −log10 of the molar value.

>>> reading("CCc1ncc(-c2cc(C)no2)c(C2CCN(CC(=O)N3CCCOCC3)CC2)n1")
"> 7.00"
>>> reading("CCc1ncc(-c2cc(C)no2)c(C2CCN(CC(=O)N3CCC(F)(F)CC3)CC2)n1")
"> 7.00"

// query I am curious: what pKi value has been reported for `Cc1cc(-c2cnc(C(C)C)nc2C2CCN(CC(=O)N3CCOCC3)CC2)on1` ?
// result > 7.00

// query And the next one, `CCc1ncc(-c2cc(C)no2)c(C2CCN(CC(=O)N3CCOCC3)CC2)n1` ?
// result > 7.00

// query `CCc1ncc(-c2cc(C)no2)c([C@@H]2CCCN(CC(=O)N3CCOCC3)CC2)n1` , same question.
// result 6.30 to 7.00

// query Request: `CCc1ncc(-c2ccncc2)c(C2CCN(CC(=O)N3CCOCC3)CC2)n1`
// result 6.00 to 6.30

----------
The compounds below have reported Ki for human σ1 receptor (Homo sapiens, UniProt Q99720).

>>> reading("CCc1ncc(-c2cc(C)no2)c(C2CCN(CCN3CCOCC3)CC2)n1")
"100 to 500 nM"
>>> reading("CCc1ncc(-c2cc(C)no2)c(C2CCN(CCC(=O)N3CCOCC3)CC2)n1")
"> 1000 nM"

// query Query: Ki; subject: `CCc1ncc(-c2cc(C)no2)c(C2CCN(CC(=O)N3CCCCC3)CC2)n1`
// result 500 to 1000 nM

// query Continue with `Cc1cc(-c2cnc(C3CC3)nc2C2CCN(CC(=O)N3CCOCC3)CC2)on1`
// result 500 to 1000 nM

// query Do the same for `CCc1ncc(-c2cc(C)no2)c(C2CCN(CC(=O)N3CCC(F)(F)CC3)CC2)n1` please
// result 500 to 1000 nM
